# TARGET DESC: T1, recombinant CD3D&E protein (human CD3-his tag) (human, UniProt P04234 22-105; P07766 23-126, limits assumed)
# T1 construct: Analyte in Biacore; also called CD3D&E-His; CD3d&ε-His
# T1 sequence (P04234 22-105 limits assumed, chain 1 of 2): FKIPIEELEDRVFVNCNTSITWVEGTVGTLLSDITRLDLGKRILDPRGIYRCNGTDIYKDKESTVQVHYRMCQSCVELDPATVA
# T1 sequence (P07766 23-126 limits assumed, chain 2 of 2): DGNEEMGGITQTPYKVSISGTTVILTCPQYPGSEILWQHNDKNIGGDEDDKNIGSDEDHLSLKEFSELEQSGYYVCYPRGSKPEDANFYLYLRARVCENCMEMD
# PROCEDURE SUMMARY: SPR Biacore, Ab captured on Protein A;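 further: humanized antibodies on a Protein A chip, human CD3-his analyte flowed over in serial dilutions for 3 min, dissociation tracked 120–360 s on a Biacore T200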
For each of the binders below, state its kon.
Write down the numeric answer in M⁻¹ s⁻¹ and omit the unit.

(Q) Name the recorded kon for Hu192A7B9-5 (antibody, V domains shown, humanized mAb) VH: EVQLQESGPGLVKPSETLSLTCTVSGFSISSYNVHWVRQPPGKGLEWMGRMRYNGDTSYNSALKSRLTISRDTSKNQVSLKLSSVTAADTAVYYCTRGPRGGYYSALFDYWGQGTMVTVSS VL: DIQMTQSPSSLSASVGDRVTITCKASQNINRYLNWYQQKPGKAPKLLIYIANSLQTGVPSRFSGSGSGTDFTLTISSLQPEDFATYYCLQHNSWYTFGQGTKLEIK .
(A) 116000

(Q) Using the record for Hu155A9B1-5 (antibody, V domains shown, humanized mAb; also called 155z5) VH: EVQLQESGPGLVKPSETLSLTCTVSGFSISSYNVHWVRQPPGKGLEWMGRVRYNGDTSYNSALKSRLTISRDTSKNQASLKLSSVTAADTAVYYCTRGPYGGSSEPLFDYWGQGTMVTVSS VL: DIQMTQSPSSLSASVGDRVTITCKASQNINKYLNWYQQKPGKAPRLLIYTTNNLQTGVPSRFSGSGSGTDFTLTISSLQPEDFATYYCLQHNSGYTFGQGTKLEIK , report its kon.
(A) 104000

(Q) What does the record list as kon for Hu192A7B9-9 (antibody, V domains shown, humanized mAb) VH: EVQLQESGPGLVKPSETLSLTCTVSGGSISSYNVHWVRQPPGKGLEWMGRMRYNGDTSYNSALKSRLTISRDTSKNQFSLKLSSVTAADTAVYYCARGPRGGYYSALFDYWGQGTMVTVSS VL: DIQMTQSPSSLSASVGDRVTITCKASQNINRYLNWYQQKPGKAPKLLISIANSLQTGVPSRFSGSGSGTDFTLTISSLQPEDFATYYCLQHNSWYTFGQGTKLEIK ?
(A) 220000

(Q) kon lookup needed for Hu192A7B9-19 (antibody, V domains shown, humanized mAb) VH: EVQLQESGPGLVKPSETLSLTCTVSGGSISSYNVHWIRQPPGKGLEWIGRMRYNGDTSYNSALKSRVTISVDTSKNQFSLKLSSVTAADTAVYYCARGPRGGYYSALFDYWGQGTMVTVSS VL: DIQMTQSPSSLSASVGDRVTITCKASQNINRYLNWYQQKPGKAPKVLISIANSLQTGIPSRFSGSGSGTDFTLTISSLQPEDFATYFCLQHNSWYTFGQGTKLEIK , thanks.
(A) 157000

(Q) Record request: kon value, item Hu192A7B9-18 (antibody, V domains shown, humanized mAb) VH: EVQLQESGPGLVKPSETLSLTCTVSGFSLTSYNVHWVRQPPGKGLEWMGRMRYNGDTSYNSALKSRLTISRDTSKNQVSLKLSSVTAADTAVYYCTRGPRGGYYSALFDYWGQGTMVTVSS VL: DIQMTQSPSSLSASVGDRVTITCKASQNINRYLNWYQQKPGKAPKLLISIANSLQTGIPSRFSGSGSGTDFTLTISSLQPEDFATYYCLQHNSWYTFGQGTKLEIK
(A) 56500

(Q) Would you mind telling me what kon value was observed for Hu192A7B9-15 (antibody, V domains shown, humanized mAb) VH: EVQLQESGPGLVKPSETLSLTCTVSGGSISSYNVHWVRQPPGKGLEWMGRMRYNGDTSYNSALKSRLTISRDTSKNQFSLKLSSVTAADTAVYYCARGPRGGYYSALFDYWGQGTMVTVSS VL: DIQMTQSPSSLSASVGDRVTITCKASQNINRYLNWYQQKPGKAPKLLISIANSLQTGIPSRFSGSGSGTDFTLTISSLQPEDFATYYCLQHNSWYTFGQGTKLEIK ?
(A) 181000

(Q) If you can, please state the reported kon value of Hu155A9B1-3 (antibody, V domains shown, humanized mAb) VH: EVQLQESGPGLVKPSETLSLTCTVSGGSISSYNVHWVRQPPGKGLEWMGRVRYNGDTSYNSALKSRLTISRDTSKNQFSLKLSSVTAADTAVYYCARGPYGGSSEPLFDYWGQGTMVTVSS VL: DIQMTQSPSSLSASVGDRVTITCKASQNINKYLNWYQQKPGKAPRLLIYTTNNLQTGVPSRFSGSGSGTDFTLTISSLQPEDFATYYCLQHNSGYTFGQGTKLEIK .
(A) 370000

(Q) What does the data say about its kon? Entry: Hu153A6B1-17 (antibody, V domains shown, humanized mAb) VH: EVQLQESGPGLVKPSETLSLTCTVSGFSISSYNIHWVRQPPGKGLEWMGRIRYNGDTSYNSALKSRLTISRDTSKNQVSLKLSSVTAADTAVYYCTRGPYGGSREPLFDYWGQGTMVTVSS VL: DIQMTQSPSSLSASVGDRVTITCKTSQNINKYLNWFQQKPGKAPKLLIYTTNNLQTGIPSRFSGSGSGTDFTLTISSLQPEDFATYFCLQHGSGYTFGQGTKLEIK
(A) 95400

(Q) Param item = Hu155A9B1-1 (antibody, V domains shown, humanized mAb) VH: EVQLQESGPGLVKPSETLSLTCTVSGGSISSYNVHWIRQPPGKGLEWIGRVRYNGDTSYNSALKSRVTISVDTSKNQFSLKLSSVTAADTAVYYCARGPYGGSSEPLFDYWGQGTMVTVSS VL: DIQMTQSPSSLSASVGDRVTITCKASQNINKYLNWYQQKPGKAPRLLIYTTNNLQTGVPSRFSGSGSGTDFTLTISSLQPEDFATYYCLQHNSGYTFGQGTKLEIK ; retrieve measured kon.
(A) 109000

(Q) Need kon, item 153A6B1 chimeric mAb (antibody, V domains shown, Chimeric mAb of the hybridoma clone; also called 153A6B1C8) VH: QVQLKESGPGLVQPSQTLSLTCTVSGFSLTSYNIHWVRQPPGKGLEWMGRIRYNGDTSYNSALKSRLSISRDTSKNQVFLKMSSLQTDDTGTYYCTRGPYGGSREPLFDYWGQGVMVTVSS VL: DIKMTQSPSFLSAAVGDRVTINCKTSQNINKYLNWFQQKLGAAPKLLIYTTNNLQTGIPSRFSGSGSGTDFTLTISSLQPEDVATYFCLQHGSGYTFGAGTKLELK
(A) 79900
